B1: library; numbered along this chain (parent)
chain: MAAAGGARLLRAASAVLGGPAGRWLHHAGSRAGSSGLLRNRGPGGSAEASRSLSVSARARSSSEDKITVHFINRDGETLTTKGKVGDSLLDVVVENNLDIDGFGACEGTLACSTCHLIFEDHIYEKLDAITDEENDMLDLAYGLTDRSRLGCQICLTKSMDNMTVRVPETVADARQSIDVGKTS

# Variants of: B1
# method: scaled log2 fold change in cell abundance, elesclomol vs control (0 = silent mean, 1 = nonsense mean) (scaled log2 ratio); higher = higher viability under elesclomol (loss of FDX1 cuproptosis function);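 note: variant abundance is its share of total variant reads in each endpoint sample, from next-generation sequencing of the integrated ORF PCR-amplified out of genomic DNA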
# settings: with ABC1 FDX1 KO; elesclomol 5 nM; glucose 10 mM; 14 days
scaled log2 fold change reference
# print the numeric value only

Some solved entries appear below for comparison.
Request the reported scaled log2 fold change associated with "A59K"
-0.0687

Need scaled log2 fold change, item "H122L"
-0.634

Field request: scaled log2 fold change | item: "P43N"
0.14

***
Can you look up the measured scaled log2 fold change of "D91G" for me?
0.216

Would you kindly share the measured scaled log2 fold change for "D173P" ?
0.0487

# get_value(readout='scaled log2 fold change', item= "R23M" )
0.474

Could you share which scaled log2 fold change value was measured for "V167E" ?
0.136

Can you look up the measured scaled log2 fold change of "V167K" for me?
0.318

Query: scaled log2 fold change; subject: "R166C"
-0.501

For the variant "A141P" , what scaled log2 fold change is on record?
0.46

Requested field: scaled log2 fold change. Item: "G42W"
0.29
